The measured values listed here are drawn from patent US20150353909.

Assayed target: HA3-UBQ-GST [GST: P08515]
Sequence (P08515 whole entry, looked up): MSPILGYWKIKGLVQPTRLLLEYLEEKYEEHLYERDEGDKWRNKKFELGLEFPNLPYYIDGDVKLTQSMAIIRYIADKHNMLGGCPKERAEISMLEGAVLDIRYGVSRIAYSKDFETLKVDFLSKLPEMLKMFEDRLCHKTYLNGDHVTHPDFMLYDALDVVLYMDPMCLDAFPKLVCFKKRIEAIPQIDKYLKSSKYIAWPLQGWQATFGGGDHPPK
Observable: in vitro deubiquitylation activity

INSERT INTO measurements (protein, value_reported) VALUES
  ('GST-OTU10 (protein) MVSHEENTSIVEWFLGPHPYTYPPYGIEMIHEDDEVAVAHHHHHHQSGEYYREYEDHRSSDVDNDEIIARTLQDDFLQLEIAESNDYSHQNQQQQHQQEGYTNNYSNNNNGYAWNDQSPAVDYSSEWIGNDNDQDGRSDDSVNVFSCSSPSDTDEYVYSWESDQCDADGEFGRRLNQMVPIPYIPKINGEIPPEEEAVSDHERLRNRLEMFDFTEVKVPGDGNCQFRALADQLYKTADRHKHVRRQIVKQLKSRPDSYQGYVPMDFSDYLRKMSRSGEWGDHVTLQAAADAYRVKIVVLTSFKDTCYIEILPTSQESKGVIFLSFWAEVHYNAIYLNRDTSETELQRKRKWWRFGN', '++'),
  ('GST-OTU4c (protein) MMICYSPITTCSRNAISIKRHLGSRLYGVVAHGSSKFSCYSLLSGLSRRHYTGFRVSVSNRPSSWHDKGLFGFAYTGVIVSLLVCYSSTSQSAYADSSRDKDANNVHHHSSDGKFHNGKRVYTDYSIIGIPGDGRCLFRSVAHGFCLRSGKLAPGEKMQRELADELRTRVADEFIQRRQETEWFVEGDFDTYVRQIRDPHVWGGEPELFMASHVLQMPITVYMKDDKAGGLISIAEYGQEYGKDDPIRVLYHGFGHYDALLLHESKASIPKSKL', '++'),
  ('His-tagged OTU9 (protein) MGYEPDPDALRWGLHDLEVCTLTNAGSCSSVTRYESGGGGTQGYVREGYNQPVTGYVDNDAVIAQFYQDELSRVARAEASGINSLSPTSVVAQDWPHPHQGQENQGEAIDITQESDILHNHNGNMEDKNVARIRFEGGQSSPSRDDDSVCSVEIEEESWSEVGKRLNQMIPIAHVPKINGELPSEDEQISDHERLFQRLQLYGLVENKIEGDGNCQFRSLSDQLYRSPEHHNFVREQVVNQLAYNREIYEGYVPMAYNDYLKAMKRNGEWGDHVTLQAAADLFGVRMFVITSFKDTCYIEILPHFQKSNRLICLSFWAEVHYNSIYPEGELPIPEGKKKKKYWVF', '++'),
  ('His-tagged OTU7a (protein) MAKTKQQKSKPKKQPHQKQGKDCDLSQFRAQLDALGLKIIQVTADGNCFFRAIADQLEGNEDEHNKYRNMIVLYIVKNREMFEPFIEDDVPFEDYCKTMDDDGTWAGNMELQAASLVTRSNICIHRNMSPRWYIRNFEDTRTRMIHLSYHDGEHYNSVRSKEDACGGPARPVVIEADAKVSAASKQAKATESKSKNKADKCHVNAGAIKVVMSGSCCDNTEKAEQVLLQVNGDVDAAIEFLIADQGMESLTENDTETASASDTINPKHASDSPMENTEQAREELIEEESASGNNSETVQAKCTTQTDDKKIPRNKTCPCGSKKKYKSCCGTATGRSSVKLLVSQTMESKKGRKNLRRGTSNEVEANAPDVGALCI', '++'),
  ('His-tagged OTU3 (protein) MELKSSSNNNILEQLRNGFARFELVSSPTASVSDSISSTSLPASFISTTKGNSYVFFARINSSMNRSPAAKKVEKYAVDRVKGDGRCLFRALVKGMAFNKGITLNPQRERDDADELRMAVKEVICNDPKEREKYKEALVAITVDESLKRFCQRIGRHDFWGGESELLVLSKLCKQPIIVYIPEHEHGRGGGYGPGFIPIQEYGSEFRGGWGKGKTNKNVVRLLYSGRNHYDLLR', '++'),
  ('His-tagged OTU2 (protein) MEGIIVRRVIPSDNSCLFNAIGYVMDKDKNKAPELRQVIAAAVASNKEKYNEAFLGKLNEEYCAWILNPDKWGGAIELSILADYYGREIAAYDIQTSRCDLYGQTRNYDERVMLIYDGLHYDALALSPFEGAEEDFDMTIYPVGKDRSIGSIEGLALNLVKDQQRKRSYTDTANFTLRCGVCQIGVIGQKEAVEHAQATGHVNFQEYK', '-');
